Target: UniProtKB P03951
Assay: Factor XIa inhibition assay (FLINT) utilizing a fluorophore-quencher pair peptide substrate
Type: biochemical
Settings: 30 min preincubation, kinetic reads over 30 min, 5Fam-KLTRAETV-K5Tamra substrate 15 μM; read-out: FXIa Kin Inh IC50
valueKind: IC50 (nM)
Use nM as the unit, but write only the number.

compound: O=C1C=C(c2c(-n3cnnn3)ccc(Cl)c2F)CC2CC[C@@H](c3ncc(-c4ccc5[nH]c(=O)[nH]c5c4)[nH]3)N12 (stereo partly drawn)
measureUnit: nM
IC50: 0.3

Write down IC50 measured for item O=C1C=C(c2c(-n3cnnn3)ccc(Cl)c2F)C[C@H]2CC[C@@H](c3ncc(-c4ccnc(-n5nccn5)c4)[nH]3)N12
4.6

Write down IC50 measured for item O=C(Nc1ccccc1-c1c[nH]c([C@@H]2CCC3CC(c4c(-n5cnnn5)ccc(Cl)c4F)=CC(=O)N32)n1)C1CCCC1 (stereo partly drawn)
0.9

====

Molecular target: Factor XIa (Homo sapiens (Human), UniProt P03951)
Sequence (P03951 388-625): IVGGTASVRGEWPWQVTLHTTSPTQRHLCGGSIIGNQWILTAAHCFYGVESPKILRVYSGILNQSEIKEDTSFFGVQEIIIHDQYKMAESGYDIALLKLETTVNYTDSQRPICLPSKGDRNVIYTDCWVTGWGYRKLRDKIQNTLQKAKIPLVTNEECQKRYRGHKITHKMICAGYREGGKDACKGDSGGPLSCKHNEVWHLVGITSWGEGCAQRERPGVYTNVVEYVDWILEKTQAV
Sequence (P03951 19-387 partner): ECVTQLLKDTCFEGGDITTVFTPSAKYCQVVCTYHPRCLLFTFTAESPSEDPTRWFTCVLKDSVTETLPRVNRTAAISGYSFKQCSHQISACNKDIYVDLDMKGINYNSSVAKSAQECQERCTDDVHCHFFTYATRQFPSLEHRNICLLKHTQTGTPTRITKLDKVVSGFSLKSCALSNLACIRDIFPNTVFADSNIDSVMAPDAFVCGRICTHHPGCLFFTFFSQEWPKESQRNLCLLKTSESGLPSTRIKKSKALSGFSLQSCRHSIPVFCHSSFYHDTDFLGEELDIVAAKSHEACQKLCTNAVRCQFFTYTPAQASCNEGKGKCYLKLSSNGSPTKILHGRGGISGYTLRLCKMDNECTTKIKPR
Test: Factor XIa inhibition assay (FLINT) utilizing a fluorophore-quencher pair peptide substrate
Assay type: biochemical
Settings: 30 min preincubation, kinetic reads over 30 min, 5Fam-KLTRAETV-K5Tamra substrate 15 μM; read-out: FXIa Kin Inh IC50
pIC50: −log10 of the molar value.
Quick rule: pIC50 of at least 9 means satisfied, below that means not satisfied.

# example entries with known answers
compound: Cc1nc2ccc(-c3cnc([C@@H]4CC[C@@H]5CC(c6c(-n7cnnn7)ccc(Cl)c6F)=CC(=O)N54)[nH]3)cc2[nH]1 [Example 30]
answerLabel: not satisfied

compound: NC(=O)c1ccc(-c2cnc([C@@H]3CC[C@H]4CC(c5c(-n6cc(C(F)(F)F)nn6)ccc(Cl)c5F)=CC(=O)N43)[nH]2)cn1 (single isomer, unassigned) [Example 213]
answerLabel: not satisfied

compound: Cn1cnc(-c2c[nH]c([C@@H]3CC[C@H]4CC(c5c(-n6cnnn6)ccc(Cl)c5F)=CC(=O)N43)n2)n1 [Example 274]
answerLabel: not satisfied

compound: NC(=O)c1ccc(-c2cnc([C@@H]3CC[C@@H]4CC(c5c(-n6cc(Cl)nn6)ccc(Cl)c5F)=CC(=O)N43)[nH]2)s1 [Example 207]
answerLabel: not satisfied

compound: NC(=O)c1ccccc1-c1cnc([C@@H]2CCC3CC(c4c(-n5cnnn5)ccc(Cl)c4F)=CC(=O)N32)[nH]1 (stereo partly drawn) [Example 290]
answerLabel: not satisfied

compound: CC(C)C(=O)Nc1ccccc1-c1c[nH]c([C@@H]2CCC3CC(c4c(-n5cnnn5)ccc(Cl)c4F)=CC(=O)N32)n1 (stereo partly drawn) [Example 329]
answerLabel: satisfied

Item NC(=O)c1ccc(-c2c[nH]c([C@@H]3CC[C@H]4CC(c5c(-n6cc(C(F)(F)F)nn6)ccc(Cl)c5F)=CC(=O)N43)n2)s1 (single isomer, unassigned) [Example 221] with pIC50 of 9 or above?
not satisfied

Item O=C1C=C(c2c(-n3cnnn3)ccc(Cl)c2F)C[C@H]2CC[C@@H](c3ncc(-c4ccc(CO)nc4F)[nH]3)N12 (single isomer, unassigned) [Example 235] with pIC50 of 9 or above?
not satisfied

Item Nc1ccnn1-c1nccc(-c2c[nH]c([C@@H]3CC[C@@H]4CC(c5c(-n6cnnn6)ccc(Cl)c5F)=CC(=O)N43)n2)c1F [Example 68] with pIC50 of 9 or above?
not satisfied

Item CNc1ncccc1-c1cnc([C@@H]2CCC3CC(c4c(-n5cnnn5)ccc(Cl)c4F)=CC(=O)N32)[nH]1 (stereo partly drawn) [Example 260] with pIC50 of 9 or above?
not satisfied

Item O=C1C[C@H](c2c(-n3cnnn3)ccc(Cl)c2F)C[C@H]2CC[C@@H](c3ncc(-c4ccnc(CO)c4F)[nH]3)N12 [Example 378] with pIC50 of 9 or above?
not satisfied

Item COC(=O)c1nccc(-c2cnc([C@@H]3CC[C@@H]4CC(c5c(-n6cnnn6)ccc(Cl)c5F)=CC(=O)N43)[nH]2)c1F [Example 52] with pIC50 of 9 or above?
not satisfied

Item CNc1nccc(-c2cnc([C@@H]3CC[C@@H]4CC(c5c(-n6cnnn6)ccc(Cl)c5F)=CC(=O)N43)[nH]2)c1F [Example 134] with pIC50 of 9 or above?
satisfied

Item Nc1ccc(-c2cnc([C@@H]3CC[C@@H]4CC(c5c(-n6cnnn6)ccc(Cl)c5F)=CC(=O)N43)[nH]2)c(C(F)(F)F)n1 [Example 167] with pIC50 of 9 or above?
not satisfied

Item Nc1ccc(-c2cnc([C@@H]3CC[C@@H]4CC(c5cc(Cl)ccc5-n5cnnn5)=CC(=O)N43)[nH]2)c(F)n1 (single isomer, unassigned) [Example 122] with pIC50 of 9 or above?
not satisfied

====

Molecular target: Factor XIa (Homo sapiens (Human))
Test: Factor XIa inhibition assay (FLINT) utilizing a fluorophore-quencher pair peptide substrate
Format: biochemical
Settings: 30 min preincubation, kinetic reads over 30 min, 5Fam-[…]-K5Tamra substrate 15 μM; read-out: FXIa Kin Inh IC50
valueKind: pIC50
In simple prose, pIC50 is minus the logarithm base ten of a concentration in moles per litre.

Answered examples (3):
molecule: O=C1C=C(c2c(-n3cnnn3)ccc(Cl)c2F)CC2CC[C@H](c3nc(F)c(-c4ccnc(N[C@H]5CCOC5)c4F)[nH]3)N12 (relative stereo)
pIC50: 8.89
//
molecule: C[C@@H](O)c1nccc(-c2[nH]c([C@@H]3CC[C@@H]4CC(c5cc(Cl)ccc5-n5cnnn5)=CC(=O)N43)nc2F)c1F (relative stereo)
pIC50: 8.36
//
molecule: CC(C)C(=O)Nc1ccccc1-c1cnc([C@@H]2CC[C@@H]3CC(c4c(-n5cnnn5)ccc(Cl)c4F)=CC(=O)N32)[nH]1 (relative stereo)
pIC50: 9.15

State pIC50 on Factor XIa (Homo sapiens (Human)). Entry: C[C@H](O)c1nccc(-c2[nH]c([C@@H]3CC[C@@H]4CC(c5cc(Cl)ccc5-n5cnnn5)=CC(=O)N43)nc2F)c1F (relative stereo)
8.27

State pIC50 on Factor XIa (Homo sapiens (Human)). Entry: CC1(C)C[C@@H](c2ncc(-c3ccc(N)nc3Cl)[nH]2)N2C(=O)C=C(c3c(-n4cnnn4)ccc(Cl)c3F)C[C@H]21 (relative stereo)
9.00

State pIC50 on Factor XIa (Homo sapiens (Human)). Entry: [2H]C1([2H])C[C@@H](c2ncc(-c3ccnc(CO)c3F)[nH]2)N2C(=O)C=C(c3c(-n4cnnn4)ccc(Cl)c3F)C([2H])([2H])[C@]21[2H]
8.41

State pIC50 on Factor XIa (Homo sapiens (Human)). Entry: CC(=O)Nc1ccccc1-c1cnc([C@@H]2CC[C@H]3CC(c4c(-n5cnnn5)ccc(Cl)c4F)=CC(=O)N32)[nH]1 (relative stereo)
9.30

State pIC50 on Factor XIa (Homo sapiens (Human)). Entry: Nc1ccnn1-c1cc(-c2cnc([C@H]3CC[C@@H]4CC(c5c(-n6cnnn6)ccc(Cl)c5F)=CC(=O)N43)[nH]2)ccn1 (single isomer, unassigned)
7.50

State pIC50 on Factor XIa (Homo sapiens (Human)). Entry: Nc1nccc(-c2[nH]c([C@@H]3CC[C@@H]4CC(c5cc(Cl)ccc5-n5cnnn5)=CC(=O)N43)nc2F)c1F (single isomer, unassigned)
9.52

State pIC50 on Factor XIa (Homo sapiens (Human)). Entry: O=C1C=C(c2c(-n3cnnn3)ccc(Cl)c2F)C[C@H]2CC[C@@H](c3ncc(-c4ccnc(N5CC6(COC6)C5)c4F)[nH]3)N12 (single isomer, unassigned)
8.54

====

Target: human plasma kallikrein (Homo sapiens (Human), UniProt P03952)
Sequence (P03952 391-638): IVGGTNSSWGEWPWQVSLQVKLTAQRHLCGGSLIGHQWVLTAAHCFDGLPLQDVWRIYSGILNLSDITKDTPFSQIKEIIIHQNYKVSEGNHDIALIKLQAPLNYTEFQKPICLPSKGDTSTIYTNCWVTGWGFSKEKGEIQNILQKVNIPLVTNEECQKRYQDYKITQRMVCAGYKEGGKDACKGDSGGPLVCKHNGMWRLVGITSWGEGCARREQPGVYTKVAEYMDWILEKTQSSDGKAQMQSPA
Sequence (P03952 20-390 partner): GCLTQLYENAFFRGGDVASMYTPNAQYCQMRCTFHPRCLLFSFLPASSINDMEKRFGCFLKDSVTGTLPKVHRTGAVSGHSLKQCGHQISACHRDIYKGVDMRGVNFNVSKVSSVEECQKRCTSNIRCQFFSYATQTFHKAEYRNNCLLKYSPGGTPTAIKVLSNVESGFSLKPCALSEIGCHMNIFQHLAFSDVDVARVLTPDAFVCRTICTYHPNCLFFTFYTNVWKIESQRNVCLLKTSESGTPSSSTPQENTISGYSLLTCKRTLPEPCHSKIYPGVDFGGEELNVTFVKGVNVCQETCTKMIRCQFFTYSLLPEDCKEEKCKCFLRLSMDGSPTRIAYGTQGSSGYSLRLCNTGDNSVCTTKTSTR
Assay: Kallikrein inhibition assay (FLINT) utilizing a quenched AMC peptide substrate
Assay type: biochemical
Conditions: 30 min preincubation, kinetic reads over 30 min, Z-Gly-Pro-Arg-AMC substrate 50 μM; read-out: Kallikrein Kin Inh IC50
valueKind: log10 of IC50 (log10 of the value in nM)
On a log10 scale: recorded IC50, unit nM.

Answered examples (4):
compound: NC(=O)Cc1nccc(-c2cnc([C@@H]3CC[C@@H]4CC(c5c(-n6cc(C(F)(F)F)nn6)ccc(Cl)c5F)=CC(=O)N43)[nH]2)c1F (single isomer, unassigned)
log10 of IC50: 2.09
//
compound: O=C1C=C(c2c(-n3cnnn3)ccc(Cl)c2F)C[C@H]2CC[C@@H](c3ncc(-c4ccnc(C5(O)CC5)c4Cl)[nH]3)N12 (relative stereo)
log10 of IC50: 1.72
//
compound: CS(=O)(=O)NC(=O)c1sc(-c2c[nH]c(C3CC[C@@H]4CC(c5c(-n6cc(C(F)(F)F)nn6)ccc(Cl)c5F)=CC(=O)N34)n2)cc1F (some centres unmarked)
log10 of IC50: 1.47
//
compound: CC1(C)C[C@@H](c2ncc(-c3ccc(N)nc3F)[nH]2)N2C(=O)C=C(c3c(-n4cnnn4)ccc(Cl)c3F)C[C@@H]21 (relative stereo)
log10 of IC50: 1.68

# ---- query compound ----
Write down log10 of IC50 measured for item O=C1C=C(c2c(-n3cnnn3)ccc(Cl)c2F)C[C@@H]2CC[C@@H](c3nc(Cl)c(-c4ccnc([C@H](O)C(F)(F)F)c4)[nH]3)N12 (single isomer, unassigned)
0.79
